- Organism: Rattus norvegicus
- assay-remarks: Open TG-GATES - Regimen: Single
- Type: toxicity, organism-based, Sprague-Dawley
- Design: regimen Single, gender Male, age 6 weeks
- measurement-context: in vivo, po, 30 mg/kg, 9 h, tissue Blood, route gavage, dose level Middle
measured-property: Eos

Recorded Eos of CN(C)CCCN1c2ccccc2CCc2ccccc21 , please.
1%

Same again, this time with CN(C)CCN(Cc1cccs1)c1ccccn1
0.6%

Same again, this time with CC1=C(/C=C/C(C)=C/C=C/C(C)=C/CO)C(C)(C)CCC1
1%

Same again, this time with CN(C)CCCN1c2ccccc2CCc2ccc(Cl)cc21
1.2%

* * *

- Species: Rattus norvegicus
- assay-remarks: Open TG-GATES - Regimen: Daily Repeat
- Format: toxicity, organism-based, Sprague-Dawley
- Design: regimen Daily Repeat, gender Male, age 6 weeks
- measurement-context: in vivo, po, 0 mg/kg, […], tissue Kidney, route gavage, dose level Control, time 14 day
measured-property: KIDNEY_R (g)
The reply should be a number in g, with the unit left off.

Recorded KIDNEY_R of CN1C(=O)CN=C(c2ccccc2)c2cc(Cl)ccc21 , please.
1.3

Same again, this time with CC(C)OC(=O)C(C)(C)Oc1ccc(C(=O)c2ccc(Cl)cc2)cc1 [FENOFIBRATE]
1.2

Same again, this time with O=C(CCCN1CCC(O)(c2ccc(Cl)cc2)CC1)c1ccc(F)cc1
1.2

Same again, this time with CCCNC(=O)NS(=O)(=O)c1ccc(Cl)cc1 [CHLORPROPAMIDE]
1.2

Same again, this time with CCOC(=O)CCC(=O)O[C@H]1[C@H](O[C@@H]2[C@@H](C)[C@H](O[C@H]3C[C@@](C)(OC)[C@@H](O)[C@H](C)O3)[C@@H](C)C(=O)O[C@H](CC)[C@@](C)(O)[C@H](O)[C@@H](C)C(=O)[C@H](C)C[C@@]2(C)O)O[C@H](C)C[C@@H]1N(C)C [ERYTHROMYCIN ETHYLSUCCINATE]
1.3

Same again, this time with COC1=CC(=O)C[C@@H](C)[C@]12Oc1c(Cl)c(OC)cc(OC)c1C2=O
1.2

Same again, this time with NC(N)=Nc1nc(CSCCC(N)=NS(N)(=O)=O)cs1
1.2

* * *

- Species on record: Rattus norvegicus
- assay-remarks: Open TG-GATES - Regimen: Single
- Assay type: toxicity, organism-based, Sprague-Dawley
- Set-up: regimen Single, gender Male, age 6 weeks
- measurement-context: in vivo, po, 1000 mg/kg, 3 h, tissue Liver, route gavage, dose level High
measured-property: LIVER (g)
The reply should be a number in g, with the unit left off.

Recorded LIVER of COC1=CC(=O)C[C@@H](C)[C@]12Oc1c(Cl)c(OC)cc(OC)c1C2=O , please.
9.6

Same again, this time with CCOC(=O)CCC(=O)O[C@H]1[C@H](O[C@@H]2[C@@H](C)[C@H](O[C@H]3C[C@@](C)(OC)[C@@H](O)[C@H](C)O3)[C@@H](C)C(=O)O[C@H](CC)[C@@](C)(O)[C@H](O)[C@@H](C)C(=O)[C@H](C)C[C@@]2(C)O)O[C@H](C)C[C@@H]1N(C)C [ERYTHROMYCIN ETHYLSUCCINATE]
9.6

Same again, this time with CC(C)OC(=O)C(C)(C)Oc1ccc(C(=O)c2ccc(Cl)cc2)cc1 [FENOFIBRATE]
7.4

Same again, this time with COc1ccc2[nH]c([S+]([O-])Cc3ncc(C)c(OC)c3C)nc2c1 (stereo not given)
9.8

Same again, this time with NC(N)=Nc1nc(CSCCC(N)=NS(N)(=O)=O)cs1
10.2

* * *

- Species on record: Rattus norvegicus
- assay-remarks: Open TG-GATES - Regimen: Single
- Type: toxicity, organism-based, Sprague-Dawley
- Set-up: regimen Single, gender Male, age 6 weeks
- measurement-context: in vivo, po, 30 mg/kg, 9 h, tissue Kidney, route gavage, dose level Middle
measured-property: KIDNEY_TOTAL (g)
The reply should be a number in g, with the unit left off.

Recorded KIDNEY_TOTAL of CN(C)CCCN1c2ccccc2CCc2ccccc21 , please.
1.9

Same again, this time with CC1=C(/C=C/C(C)=C/C=C/C(C)=C/CO)C(C)(C)CCC1
1.8

Same again, this time with CN(C)CCCN1c2ccccc2CCc2ccc(Cl)cc21
1.9

Same again, this time with CN(C)CCN(Cc1cccs1)c1ccccn1
1.7

* * *

- Species on record: Rattus norvegicus
- assay-remarks: Open TG-GATES - Regimen: Single
- Assay type: toxicity, organism-based, Sprague-Dawley
- Set-up: regimen Single, gender Male, age 6 weeks
- measurement-context: in vivo, po, 100 mg/kg, 24 h, tissue Plasma, route gavage, dose level Low
Would you kindly list Cl for each of these compounds?
Field note: include the unit after the figure.

Recorded Cl of NC(N)=Nc1nc(CSCCC(N)=NS(N)(=O)=O)cs1 [FAMOTIDINE] , please.
104.2 meq/L

Same again, this time with COC1=CC(=O)C[C@@H](C)[C@]12Oc1c(Cl)c(OC)cc(OC)c1C2=O [GRISEOFULVIN]
103.4 meq/L

Same again, this time with COc1ccc2[nH]c([S+]([O-])Cc3ncc(C)c(OC)c3C)nc2c1 (centres undefined) [OMEPRAZOLE]
101 meq/L

Same again, this time with CCOC(=O)CCC(=O)O[C@H]1[C@H](O[C@@H]2[C@@H](C)[C@H](O[C@H]3C[C@@](C)(OC)[C@@H](O)[C@H](C)O3)[C@@H](C)C(=O)O[C@H](CC)[C@@](C)(O)[C@H](O)[C@@H](C)C(=O)[C@H](C)C[C@@]2(C)O)O[C@H](C)C[C@@H]1N(C)C [ERYTHROMYCIN ETHYLSUCCINATE]
106.6 meq/L

* * *

- Species on record: Rattus norvegicus
- assay-remarks: Open TG-GATES - Regimen: Daily Repeat
- Type: toxicity, organism-based, Sprague-Dawley
- Set-up: regimen Daily Repeat, gender Male, age 6 weeks
- measurement-context: in vivo, po, 1000 mg/kg, 72 h, route gavage, dose level High, time 3 day
measured-property: TERMINAL_BW (g)
The reply should be a number in g, with the unit left off.

Recorded TERMINAL_BW of CCOc1ccc(NC(=O)CC(C)O)cc1 (stereo unspecified) , please.
228.7

Same again, this time with COc1ccc2[nH]c([S+]([O-])Cc3ncc(C)c(OC)c3C)nc2c1 (stereo unspecified)
219.1

Same again, this time with NC(N)=Nc1nc(CSCCC(N)=NS(N)(=O)=O)cs1
226

Same again, this time with CCOC(=O)CCC(=O)O[C@H]1[C@H](O[C@@H]2[C@@H](C)[C@H](O[C@H]3C[C@@](C)(OC)[C@@H](O)[C@H](C)O3)[C@@H](C)C(=O)O[C@H](CC)[C@@](C)(O)[C@H](O)[C@@H](C)C(=O)[C@H](C)C[C@@]2(C)O)O[C@H](C)C[C@@H]1N(C)C [ERYTHROMYCIN ETHYLSUCCINATE]
226.1

Same again, this time with CC(C)OC(=O)C(C)(C)Oc1ccc(C(=O)c2ccc(Cl)cc2)cc1 [FENOFIBRATE]
215.9

Same again, this time with COC1=CC(=O)C[C@@H](C)[C@]12Oc1c(Cl)c(OC)cc(OC)c1C2=O
225

* * *

Would you kindly list CRE for each of these molecules?
- Species on record: Rattus norvegicus
- assay-remarks: Open TG-GATES - Regimen: Daily Repeat
- Format: toxicity, organism-based, Sprague-Dawley
- Set-up: regimen Daily Repeat, gender Male, age 6 weeks
- measurement-context: in vivo, po, 100 mg/kg, […], tissue Plasma, route gavage, dose level Low, time 7 day
The reply should be a number in mg/dL, with the unit left off.

Recorded CRE of COC1=CC(=O)C[C@@H](C)[C@]12Oc1c(Cl)c(OC)cc(OC)c1C2=O , please.
0.4

Same again, this time with COc1ccc2[nH]c([S+]([O-])Cc3ncc(C)c(OC)c3C)nc2c1 (stereo not given)
0.4

Same again, this time with NC(N)=Nc1nc(CSCCC(N)=NS(N)(=O)=O)cs1
0.4

Same again, this time with CCOc1ccc(NC(=O)CC(C)O)cc1 (stereo not given)
0.2

Same again, this time with CCOC(=O)CCC(=O)O[C@H]1[C@H](O[C@@H]2[C@@H](C)[C@H](O[C@H]3C[C@@](C)(OC)[C@@H](O)[C@H](C)O3)[C@@H](C)C(=O)O[C@H](CC)[C@@](C)(O)[C@H](O)[C@@H](C)C(=O)[C@H](C)C[C@@]2(C)O)O[C@H](C)C[C@@H]1N(C)C [ERYTHROMYCIN ETHYLSUCCINATE]
0.2

* * *

- Species on record: Rattus norvegicus
- assay-remarks: Open TG-GATES - Regimen: Single
- Assay type: toxicity, organism-based, Sprague-Dawley
- Parameters: regimen Single, gender Male, age 6 weeks
- measurement-context: in vivo, po, 0 mg/kg, 3 h, tissue Plasma, route gavage, dose level Control
Would you kindly list K for each of these molecules?
The reply should be a number in meq/L, with the unit left off.

Recorded K of CN1C(=O)CN=C(c2ccccc2)c2cc(Cl)ccc21 , please.
5.2

Same again, this time with CN(C)CCCN1c2ccccc2CCc2ccc(Cl)cc21
4.2

Same again, this time with Cc1ccc(C)c(OCCCC(C)(C)C(=O)O)c1
4.2

Same again, this time with O=C(CCCN1CCC(O)(c2ccc(Cl)cc2)CC1)c1ccc(F)cc1
5.2

Same again, this time with CCOC(=O)CCC(=O)O[C@H]1[C@H](O[C@@H]2[C@@H](C)[C@H](O[C@H]3C[C@@](C)(OC)[C@@H](O)[C@H](C)O3)[C@@H](C)C(=O)O[C@H](CC)[C@@](C)(O)[C@H](O)[C@@H](C)C(=O)[C@H](C)C[C@@]2(C)O)O[C@H](C)C[C@@H]1N(C)C [ERYTHROMYCIN ETHYLSUCCINATE]
3.9

Same again, this time with CCCNC(=O)NS(=O)(=O)c1ccc(Cl)cc1 [CHLORPROPAMIDE]
4.3

Same again, this time with CC1=C(/C=C/C(C)=C/C=C/C(C)=C/CO)C(C)(C)CCC1
3.8

Same again, this time with COc1cc2c(c(OC)c1OC)-c1ccc(OC)c(=O)cc1[C@@H](NC(C)=O)CC2
4.5

Same again, this time with NNC(=O)c1ccncc1
4.1

Same again, this time with COC1=CC(=O)C[C@@H](C)[C@]12Oc1c(Cl)c(OC)cc(OC)c1C2=O
4

Same again, this time with C[C@@H]1C[C@H]2[C@@H]3CCC4=CC(=O)C=C[C@]4(C)[C@@]3(F)[C@@H](O)C[C@]2(C)[C@@]1(O)C(=O)CO
4.1

Same again, this time with CN(C)CCN(Cc1cccs1)c1ccccn1
4.2

Same again, this time with CC(C)OC(=O)C(C)(C)Oc1ccc(C(=O)c2ccc(Cl)cc2)cc1 [FENOFIBRATE]
4.3

Same again, this time with CCOc1ccc(NC(=O)CC(C)O)cc1 (stereo unspecified)
4.3

Same again, this time with CN(C)CCCN1c2ccccc2CCc2ccccc21
4

Same again, this time with COc1ccc2[nH]c([S+]([O-])Cc3ncc(C)c(OC)c3C)nc2c1 (stereo unspecified)
3.8
